molecular target: human recombinant adrenergic α1D receptor (Homo sapiens); construct: expressed in transfected cells; host or cells: HEK-293; assay: Radioligand binding, adrenergic α1D receptor ([3H]Prazosin); settings: 0.1 μM compound; HEK-293 cells; 0.6 nM [3H]Prazosin; read-out: Percentage inhibition of ligand binding, Adrenergic α1D
Sequence (P25100 whole entry): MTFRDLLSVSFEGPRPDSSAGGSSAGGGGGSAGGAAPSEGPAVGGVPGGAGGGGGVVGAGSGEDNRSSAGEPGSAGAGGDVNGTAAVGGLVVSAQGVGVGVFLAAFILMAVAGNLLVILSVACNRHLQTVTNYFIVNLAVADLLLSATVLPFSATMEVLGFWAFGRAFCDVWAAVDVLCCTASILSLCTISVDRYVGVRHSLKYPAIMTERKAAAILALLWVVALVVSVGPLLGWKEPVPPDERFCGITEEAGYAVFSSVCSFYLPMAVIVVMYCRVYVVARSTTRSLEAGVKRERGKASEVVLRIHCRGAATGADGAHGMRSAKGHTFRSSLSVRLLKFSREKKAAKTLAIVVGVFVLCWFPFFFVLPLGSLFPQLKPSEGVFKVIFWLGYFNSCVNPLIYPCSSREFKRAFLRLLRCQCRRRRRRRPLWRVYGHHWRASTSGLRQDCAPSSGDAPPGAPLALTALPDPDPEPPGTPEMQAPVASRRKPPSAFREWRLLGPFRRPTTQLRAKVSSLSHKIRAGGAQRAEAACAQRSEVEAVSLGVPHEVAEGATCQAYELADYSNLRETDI
Parameter: inhibition at 0.1 µM (%)
API: value field is a number in %; no unit string.

// known answers, use as guide
[[record]]
substance_smiles = "Cc1ccc2c(c1)c1c(n2-c2ccc(-c3ccnn3C)cn2)CCN(C)C1"
target_desc = "human recombinant adrenergic α1D receptor (Homo sapiens)"
unit_of_measure = "%"
result_value = 79

[[record]]
substance_smiles = "CC(=O)Nc1ccc(-c2cccc(-n3c4c(c5cc(C)ccc53)CN(C)CC4)c2)cn1"
target_desc = "human recombinant adrenergic α1D receptor (Homo sapiens)"
unit_of_measure = "%"
result_value = 1

[[record]]
substance_smiles = "Cc1ccc2c(c1)c1c(n2-c2ccc(-c3cccnc3)cn2)CCN(C)C1"
target_desc = "human recombinant adrenergic α1D receptor (Homo sapiens)"
unit_of_measure = "%"
result_value = 53

[[record]]
substance_smiles = "Cc1cc(C)c2c(c1)c1c(n2-c2cccc(-c3ccncc3)c2)CCN(C)C1"
target_desc = "human recombinant adrenergic α1D receptor (Homo sapiens)"
unit_of_measure = "%"
result_value = -1

[[record]]
substance_smiles = "Cc1ccc2c(c1)c1c(n2-c2ccc3ccncc3c2)CCN(C)C1"
target_desc = "human recombinant adrenergic α1D receptor (Homo sapiens)"
unit_of_measure = "%"
result_value = 18

[[record]]
substance_smiles = "CC(=O)Nc1ccc(-c2cscc2-n2c3c(c4cc(C)ccc42)CN(C)CC3)cn1"
target_desc = "human recombinant adrenergic α1D receptor (Homo sapiens)"
unit_of_measure = "%"
result_value = 65

[[record]]
substance_smiles = "Cc1ccc2c(c1)c1c(n2-c2cccs2)CCN(C)C1"
target_desc = "human recombinant adrenergic α1D receptor (Homo sapiens)"
unit_of_measure = "%"
result_value = 16

[[record]]
substance_smiles = "Cc1ccc2c(c1)c1c(n2-c2ccsc2)CCN(C)C1"
target_desc = "human recombinant adrenergic α1D receptor (Homo sapiens)"
unit_of_measure = "%"
result_value = 20

[[record]]
substance_smiles = "Cc1ccc2c(c1)c1c(n2-c2cscc2-c2ccc(O)nc2)CCN(C)C1"
target_desc = "human recombinant adrenergic α1D receptor (Homo sapiens)"
unit_of_measure = "%"
result_value = 14

[[record]]
substance_smiles = "CNC(=O)c1ccc(-c2cscc2-n2c3c(c4cc(C)ccc42)CN(C)CC3)cc1"
target_desc = "human recombinant adrenergic α1D receptor (Homo sapiens)"
unit_of_measure = "%"
result_value = 63


Record Cc1ccc2c(c1)c1c(n2-c2cscc2-c2cncc3ccccc23)CCN(C)C1 has human recombinant adrenergic α1D receptor (Homo sapiens) inhibition at 0.1 µM equal to 18

Cited source for all entries: patent US20140155384A1
